# reported pIC50; entries follow
Experimental system: recombinant glucosyltransferase domain of C. difficile Toxin B/TcdB (Clostridioides difficile, UniProt P18177)
Construct: 6-His (C); purchased R&D Systems 6246-GT
Sequence (P18177 1-543): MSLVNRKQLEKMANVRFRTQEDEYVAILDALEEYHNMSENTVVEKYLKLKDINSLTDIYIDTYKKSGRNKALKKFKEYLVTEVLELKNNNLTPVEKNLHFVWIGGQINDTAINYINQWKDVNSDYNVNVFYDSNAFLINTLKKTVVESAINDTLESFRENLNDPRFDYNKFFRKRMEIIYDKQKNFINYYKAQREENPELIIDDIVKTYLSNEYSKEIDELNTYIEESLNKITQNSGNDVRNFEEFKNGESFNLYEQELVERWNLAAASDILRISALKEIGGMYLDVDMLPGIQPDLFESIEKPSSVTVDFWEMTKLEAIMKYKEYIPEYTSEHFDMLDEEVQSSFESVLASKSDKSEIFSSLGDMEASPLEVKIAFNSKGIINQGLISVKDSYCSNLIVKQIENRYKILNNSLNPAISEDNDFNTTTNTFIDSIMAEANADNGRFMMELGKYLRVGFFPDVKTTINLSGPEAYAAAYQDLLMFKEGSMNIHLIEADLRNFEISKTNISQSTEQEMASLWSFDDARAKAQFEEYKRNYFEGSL
Assay overview: biochemical
pIC50: −log10 of the molar value.
Value kind: pIC50

1. O=C(Nc1cnccn1)c1ccc(CN2C(=O)c3ccc(Cl)cc3NC(=O)[C@H]2Cc2cccnc2)cc1    > 7.00
2. Cn1cc(C(=O)N2CCC(CN3C(=O)c4ccc(Cl)cc4NC(=O)[C@H]3Cc3ccccn3)CC2)c2ncccc21 [Example 43a]    5.00 to 6.00
3. C[C@@H]1C(=O)Nc2cc(Cl)ccc2C(=O)N1Cc1ccc(C(=O)Nc2ncc3ccccc3n2)cc1    6.00 to 7.00
4. O=C1Nc2cc(Cl)ccc2C(=O)N(C[C@H]2CC[C@H](C(=O)N3CCc4cccnc43)CC2)[C@@H]1Cc1ccccn1    > 7.00

----------
Experimental system: C. difficile full-length toxin TcdB (Clostridioides difficile, UniProt P18177)
Construct: C. difficile full-length toxins (TcdA or TcdB)
Sequence (P18177 2-2366 limits assumed): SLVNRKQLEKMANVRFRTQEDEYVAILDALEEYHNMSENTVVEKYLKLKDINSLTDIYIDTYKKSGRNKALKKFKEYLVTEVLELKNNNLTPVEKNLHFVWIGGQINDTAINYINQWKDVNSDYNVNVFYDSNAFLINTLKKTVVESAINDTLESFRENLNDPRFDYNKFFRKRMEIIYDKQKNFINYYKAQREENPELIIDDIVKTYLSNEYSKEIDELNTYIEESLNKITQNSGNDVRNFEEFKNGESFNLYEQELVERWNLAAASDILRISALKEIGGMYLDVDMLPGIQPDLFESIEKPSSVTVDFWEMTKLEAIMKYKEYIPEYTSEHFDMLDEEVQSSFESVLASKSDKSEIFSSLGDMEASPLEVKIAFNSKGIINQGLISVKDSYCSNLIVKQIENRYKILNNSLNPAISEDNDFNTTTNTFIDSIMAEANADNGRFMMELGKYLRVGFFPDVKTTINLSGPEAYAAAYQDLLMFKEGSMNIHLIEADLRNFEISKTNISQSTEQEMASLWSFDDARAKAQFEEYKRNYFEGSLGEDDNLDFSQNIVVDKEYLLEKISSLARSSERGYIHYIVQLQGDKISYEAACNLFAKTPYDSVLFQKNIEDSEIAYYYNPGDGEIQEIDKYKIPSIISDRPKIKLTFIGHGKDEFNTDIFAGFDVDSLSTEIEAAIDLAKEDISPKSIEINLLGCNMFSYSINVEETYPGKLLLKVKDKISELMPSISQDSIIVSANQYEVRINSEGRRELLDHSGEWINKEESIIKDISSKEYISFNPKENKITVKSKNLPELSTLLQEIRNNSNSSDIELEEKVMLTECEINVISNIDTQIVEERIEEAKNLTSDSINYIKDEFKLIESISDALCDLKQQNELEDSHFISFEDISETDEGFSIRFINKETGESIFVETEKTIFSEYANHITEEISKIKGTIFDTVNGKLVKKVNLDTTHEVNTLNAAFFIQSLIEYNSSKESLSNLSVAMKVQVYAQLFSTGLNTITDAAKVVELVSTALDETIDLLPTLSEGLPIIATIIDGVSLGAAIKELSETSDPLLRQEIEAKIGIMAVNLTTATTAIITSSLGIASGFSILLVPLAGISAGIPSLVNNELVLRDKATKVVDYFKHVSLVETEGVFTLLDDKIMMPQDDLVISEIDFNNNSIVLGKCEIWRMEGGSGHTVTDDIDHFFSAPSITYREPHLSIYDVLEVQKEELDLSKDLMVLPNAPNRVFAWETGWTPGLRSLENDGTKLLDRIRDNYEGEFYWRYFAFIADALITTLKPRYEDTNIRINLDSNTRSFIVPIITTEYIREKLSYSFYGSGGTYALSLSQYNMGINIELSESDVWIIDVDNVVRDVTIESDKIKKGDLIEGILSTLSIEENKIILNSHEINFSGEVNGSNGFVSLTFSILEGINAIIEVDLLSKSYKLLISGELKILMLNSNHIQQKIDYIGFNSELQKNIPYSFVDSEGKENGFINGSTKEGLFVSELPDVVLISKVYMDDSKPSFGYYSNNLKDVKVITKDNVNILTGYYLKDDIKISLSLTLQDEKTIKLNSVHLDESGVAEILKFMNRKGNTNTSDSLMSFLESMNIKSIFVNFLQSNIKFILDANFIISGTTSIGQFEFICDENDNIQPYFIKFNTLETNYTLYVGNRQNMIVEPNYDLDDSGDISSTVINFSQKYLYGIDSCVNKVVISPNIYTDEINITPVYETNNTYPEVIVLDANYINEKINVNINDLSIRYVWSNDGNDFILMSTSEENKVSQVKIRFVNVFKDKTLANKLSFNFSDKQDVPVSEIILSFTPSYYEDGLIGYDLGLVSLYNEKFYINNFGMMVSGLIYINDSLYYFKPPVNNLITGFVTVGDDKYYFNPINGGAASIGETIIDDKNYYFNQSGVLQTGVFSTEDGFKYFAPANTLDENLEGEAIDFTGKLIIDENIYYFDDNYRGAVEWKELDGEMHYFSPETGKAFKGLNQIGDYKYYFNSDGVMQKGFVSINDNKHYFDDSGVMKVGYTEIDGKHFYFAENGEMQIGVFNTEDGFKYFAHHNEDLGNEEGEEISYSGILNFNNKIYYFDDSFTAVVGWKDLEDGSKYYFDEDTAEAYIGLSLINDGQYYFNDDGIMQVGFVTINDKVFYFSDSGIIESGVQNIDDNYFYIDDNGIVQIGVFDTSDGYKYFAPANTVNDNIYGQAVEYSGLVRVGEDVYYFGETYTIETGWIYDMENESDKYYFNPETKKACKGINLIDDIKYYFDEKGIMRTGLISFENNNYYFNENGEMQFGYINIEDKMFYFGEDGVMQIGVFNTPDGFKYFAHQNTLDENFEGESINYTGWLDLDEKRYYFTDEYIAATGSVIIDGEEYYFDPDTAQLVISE
Assay overview: cell-based
pIC50: −log10 of the molar value.
Value kind: pIC50

1) O=C(Nc1ccc(C(F)(F)F)cn1)c1ccc(CN2C(=O)c3ccc(Cl)cc3NC(=O)[C@H]2Cc2ccccn2)cc1Cl    6.00 to 7.00
2) Cc1cnc(NC(=O)c2ccc(CN3C(=O)c4ccc(Cl)cc4NC(=O)[C@H]3Cc3ccccn3)cc2Cl)cn1    6.00 to 7.00
3) Cc1ccc(NC(=O)c2ccc(CN3C(=O)c4ccc(Cl)cc4NC(=O)[C@H]3Cc3ccccn3)cc2C)nc1    > 7.00
4) COc1cc(CN2C(=O)c3ccc(Cl)cc3NC(=O)[C@H]2Cc2ccccn2)ccc1C(=O)Nc1ccc(C)cn1    6.00 to 7.00

----------
Experimental system: recombinant glucosyltransferase domain of C. difficile Toxin B/TcdB (Clostridioides difficile)
Construct: 6-His (C); purchased R&D Systems 6246-GT
Assay overview: biochemical
Value kind: IC50

1. COc1cnc(NC(=O)c2ccc(CN3C(=O)c4ccc(Cl)cc4NC(=O)[C@H]3Cc3ccccn3)cc2C)nc1    < 100 nM
2. Cc1ccnc(C(=O)Nc2ccc(CN3C(=O)c4ccc(Cl)cc4NC(=O)[C@H]3Cc3ccccn3)cc2)c1 [Example 26c]    < 100 nM
3. COc1ccc(NC(=O)c2ccc(S(=O)(=O)N3Cc4ccc(Cl)cc4NC(=O)[C@H]3Cc3ccccn3)cc2)nc1 [Example 19f]    100 to 999 nM
4. COc1ccc(S(=O)(=O)NC(=O)c2ccc(CN3C(=O)c4ccc(Cl)cc4NC(=O)[C@H]3Cc3cccnc3)cc2)cc1 [Example 15d]    1000 to 10000 nM
5. O=C(Nc1ccccn1)c1ccc(CN2C(=O)c3ccc(C(F)(F)F)cc3NC(=O)[C@H]2Cc2ccc(Cl)c(Cl)c2)cc1 [Example 35f]    1000 to 10000 nM
6. CC(=O)Nc1ccc2c(c1)NC(=O)[C@@H](C)N(Cc1ccc(C(=O)Nc3ccc(C)cn3)cc1)C2=O [Example 17a]    100 to 999 nM
7. O=C(Nc1ccncn1)c1ccc(CN2C(=O)c3ccc(Cl)cc3NC(=O)[C@H]2Cc2cccnc2)cc1    < 100 nM

----------
# reported pIC50; entries follow
Experimental system: recombinant glucosyltransferase domain of C. difficile Toxin B/TcdB (Clostridioides difficile, UniProt P18177)
Construct: 6-His (C); purchased R&D Systems 6246-GT
Assay overview: biochemical
pIC50: −log10 of the molar value.
Value kind: pIC50

1. COCCC(=O)Nc1ccc2c(c1)NC(=O)[C@@H](C)N(Cc1ccc(C(=O)Nc3ccc(C)cn3)cc1)C2=O [Example 18a]    5.00 to 6.00
2. O=C(O)c1ccc(CN2C(=O)c3ccc([N+](=O)[O-])cc3NC(=O)[C@H]2Cc2ccc(Cl)c(Cl)c2)cc1    5.00 to 6.00
3. CC(C)(C)OC(=O)N1CCN(c2ccc(NC(=O)c3ccc(CN4C(=O)c5ccc(Cl)cc5NC(=O)[C@H]4Cc4ccccn4)cc3)nc2)CC1    6.00 to 7.00
4. O=C(O)c1ccc(CN2C(=O)c3ccc(Cl)cc3NC(=O)[C@H]2Cc2ccncc2)cc1    4.46 to 5.00
5. Cc1ccccc1C[C@@H]1C(=O)Nc2cc(Cl)ccc2C(=O)N1Cc1ccc(C(=O)Nc2ccccn2)cc1    > 7.00
6. Cc1nnc(NC(=O)c2ccc(CN3C(=O)c4ccc(Cl)cc4NC(=O)[C@H]3Cc3ccccn3)cc2)o1    > 7.00
7. Cc1ccc(NC(=O)c2ccc(CN3C(=O)c4ccc(Cl)cc4NC(=O)[C@H]3Cc3ccccn3)cc2)nc1    > 7.00

----------
Experimental system: C. difficile full-length toxin TcdA (Clostridioides difficile)
Construct: C. difficile full-length toxins (TcdA or TcdB)
Assay overview: cell-based
Value kind: IC50

1. O=C(Nc1ccc(F)cn1)c1ccc(CN2C(=O)c3ccc(Cl)cc3NC(=O)[C@H]2Cc2ccccn2)cc1    1000 to 10000 nM
2. O=C(Nc1ccc(CN2C(=O)c3ccc(Cl)cc3NC(=O)[C@H]2Cc2ccccn2)cc1)c1c[nH]cn1 [Example 27j]    > 10000 nM
3. Cn1cc(C(=O)c2ccc(CN3C(=O)c4ccc(Cl)cc4NC(=O)[C@H]3Cc3ccccn3)cc2)c2ncccc21 [Example 31a]    1000 to 10000 nM
4. Cn1cc(C(=O)[C@H]2CC[C@H](CN3C(=O)c4ccc(Cl)cc4NC(=O)[C@H]3Cc3ccccn3)CC2)c2ncccc21 [Example 33b]    1000 to 10000 nM
5. COc1cnc(NC(=O)c2ccc(CN3C(=O)c4ccc(Cl)cc4NC(=O)[C@H]3Cc3ccccn3)cc2OC)cn1    1000 to 10000 nM
6. O=C1Nc2cc(Cl)ccc2C(=O)N(Cc2ccc(N3Cc4cccnc4C3=O)cc2)[C@@H]1Cc1ccccn1 [Example 49c]    > 10000 nM
7. Cc1cnc(NC(=O)c2ccc(CN3C(=O)c4ccc(Cl)cc4NC(=O)[C@H]3Cc3ccccn3)cc2Cl)cn1    1000 to 10000 nM
8. Cc1cnc2c(c1)CCN2C(=O)c1ccc(CN2C(=O)c3ccc(Cl)cc3NC(=O)[C@H]2Cc2ccccn2)cc1Cl    100 to 999 nM
9. COc1cnc(NC(=O)c2ccc(CN3C(=O)c4ccc(Cl)cc4NC(=O)[C@H]3Cc3ccccn3)cc2OC)nc1    1000 to 10000 nM
10. Cc1ccc(C(=O)c2ccc(CN3C(=O)c4ccc(Cl)cc4NC(=O)[C@H]3Cc3ccccn3)cc2)nc1 [Example 11b]    > 10000 nM
11. Cc1ccc(NC(=O)c2ccc(CN3C(=O)c4ccc(Cl)cc4NC(=O)[C@H]3Cc3ccccn3)cc2Cl)nc1    100 to 999 nM
12. COc1cc(CN2C(=O)c3ccc(Cl)cc3NC(=O)[C@H]2Cc2ccccn2)ccc1C(=O)Nc1cnc(C)cn1    1000 to 10000 nM
13. COc1ccc(NC(=O)c2ccc(CN3C(=O)c4ccc(Cl)cc4NC(=O)[C@H]3Cc3ccccn3)cc2Cl)nc1    100 to 999 nM
14. Cc1cnc(NC(=O)c2ccc(CN3C(=O)c4ccc(Cl)cc4NC(=O)[C@H]3Cc3ccccn3)cc2C)cn1    1000 to 10000 nM

----------
Experimental system: recombinant glucosyltransferase domain of C. difficile Toxin B/TcdB (Clostridioides difficile, UniProt P18177)
Construct: 6-His (C); purchased R&D Systems 6246-GT
Assay overview: biochemical
# reported IC50; entries follow
Value kind: IC50

1. CN(C)C(=O)c1ccc(CN2C(=O)c3ccc(Cl)cc3NC(=O)[C@H]2Cc2cccnc2)cc1 [Example 13b]    10000 to 35000 nM
2. Cc1cccc(C[C@@H]2C(=O)Nc3cc(Cl)ccc3C(=O)N2Cc2ccc(C(=O)Nc3ccccn3)cc2)c1    100 to 999 nM
3. O=C(Nc1ccccn1)c1ccc(CN2C(=O)c3ccc(Cl)cc3NC(=O)[C@H]2Cc2ccc(Cl)cc2)cc1    1000 to 10000 nM
4. O=C1Nc2cc(Cl)ccc2C(=O)N(Cc2ccc(C(=O)N3CCCc4cccnc43)cc2)[C@@H]1Cc1ccccn1    1000 to 10000 nM
5. Cn1nccc1-c1cc(CN2C(=O)c3ccc(Cl)cc3NC(=O)[C@H]2Cc2ccccn2)ccc1C(=O)O    1000 to 10000 nM
6. CNC(=O)c1cccc(-c2cc(CN3C(=O)c4ccc(Cl)cc4NC(=O)[C@H]3Cc3ccccn3)ccc2C(=O)O)c1    100 to 999 nM
7. CC(=O)NC(=O)c1ccc(CN2C(=O)c3ccc(Cl)cc3NC(=O)[C@H]2Cc2ccccn2)cc1 [Example 12a]    < 100 nM

----------
Experimental system: recombinant glucosyltransferase domain of C. difficile Toxin B/TcdB (Clostridioides difficile, UniProt P18177)
Construct: 6-His (C); purchased R&D Systems 6246-GT
Assay overview: biochemical
# reported IC50; entries follow
Value kind: IC50

1) Cc1cnc(NC(=O)c2ccc(CN3C(=O)c4ccc(Cl)cc4NC(=O)[C@H]3Cc3cnccn3)cc2)nc1 [Example 5z]    < 100 nM
2) O=C1Nc2cc(Cl)ccc2C(=O)N(Cc2ccc(C(=O)N3CCc4cccnc43)cc2)[C@@H]1Cc1ccccn1 [Example 4ah]    < 100 nM
3) Cc1ccc(NC(=O)c2ccc(CN3C(=O)c4ccc(NC(=O)C(C)C)cc4NC(=O)[C@H]3C)cc2)nc1 [Example 18b]    10000 to 35000 nM
4) O=C1CN(Cc2ccc(C(=O)Nc3ccccn3)cc2)C(=O)c2ccc(Cl)cc2N1 [Example 4am]    100 to 999 nM
5) O=C(Nc1ccccn1)c1ccc(CN2C(=O)c3ccc(Cl)cc3NC(=O)C2CC2CCOCC2)cc1 (stereo not shown) [Example 35e]    1000 to 10000 nM
6) Cc1cnc(NC(=O)c2ccc(CN3C(=O)c4ccc(Cl)cc4NC(=O)[C@H]3Cc3ccccn3)cc2)cn1 [Example 5t]    < 100 nM
7) CC(C)[C@@H]1C(=O)Nc2cc(Cl)ccc2C(=O)N1Cc1ccc(C(=O)O)cc1 [Example 3k]    100 to 999 nM
